# target_under_test: DYNLL1 1-89 Dynein_light (domain begin residue: 1, domain end residue: 89), P63167
# Sequence (P63167 whole entry): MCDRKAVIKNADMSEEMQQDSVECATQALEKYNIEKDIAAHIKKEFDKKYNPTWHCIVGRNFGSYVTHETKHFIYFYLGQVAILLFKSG
# measurement_protocol: phage ELISA signal ratio (GST-PRM binding over GST background); higher = stronger binding of peptide-phage to the PRM
This section presents binders with their documented phage ELISA signal ratio values.
// return just the number, without any unit appended

See these solved cases before continuing.
LREMGTQTGEMITDYV: 25.8
VDMGTQTEASLLRYSV: 33.5
SQTDWYDELFSQLVVT: 27.9

// next item, phage ELISA signal ratio requested
Per the records, this binder ( EMWTQTTSYDFLQMQG ) has phage ELISA signal ratio equal to 20.7

Values were extracted from the supplement of paper PMC7724964.
